Each item that follows carries a reported OD450 of PD-L1 bound, antibody at 0.61 µg/mL.
molecular target: T1, PD-1 protein (human, UniProt Q15116 25-167, limits assumed); test: blocking ELISA, PD-1 coated, competitor biotin PD-L1
T1 construct: also called human PD-1
T1 sequence (Q15116 25-167 limits assumed): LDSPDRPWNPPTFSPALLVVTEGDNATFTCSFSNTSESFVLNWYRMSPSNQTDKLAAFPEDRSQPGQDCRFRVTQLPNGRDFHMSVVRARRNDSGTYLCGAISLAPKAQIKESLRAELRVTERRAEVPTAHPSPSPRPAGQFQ
Dear colleague, please return just the value in OD450, with no unit written.

The cases that follow already have their OD450 of PD-L1 bound, antibody at 0.61 µg/mL on record.
binder	result-number
504#SS14 (Fc fusion, not shown: a dimerising Fc or GST; small tags and cut ends, VHH-FC construct from HEK293 cells) VHH: QVQLVESGGGLVQPGGSLRLSCVASGFTFSSYWMYWVRQAPGKGLEWVSAIDTTGGSTAYTHSVKGRFTISRDNARNTLYLQMNNLKSEDTAVYYCANSTYFNDDPEYDRWGQGTQVTVSS	3.25
504#SS29 (Fc fusion, not shown: a dimerising Fc or GST; small tags and cut ends, VHH-FC construct from HEK293 cells) VHH: QVQLVESGGGLVQAGGSLRLSCAASGRTFSGYTMGWFRRAPGKERELIANILWNSARRYYADSVKGRFTISRDNAMNTVDLQMNSLKPEDTAVYYCAVLVDSTYRFSNQGTQVTVSS	3.36
504#SS10 (Fc fusion, not shown: a dimerising Fc or GST; small tags and cut ends, VHH-FC construct from HEK293 cells) VHH: EVQLVESGGGLVQPGASLRLSCTASGSIFSIYAMGWYRQAPGKQRELVAYITSGGSTTYADSVKGRFTISRDNAKNTVYLQMNSLKPEDTAVYYCNRGNYYRDYKPEFWGQGTQVTVSS	3.24

Now turn to the next binder.
Respond only with OD450 of PD-L1 bound, antibody at 0.61 µg/mL recorded for 504#SS23 (Fc fusion, not shown: a dimerising Fc or GST; small tags and cut ends, VHH-FC construct from HEK293 cells) VHH: QVQLVESGGGLVQPGGSLRLSCAASGFTFSSYVMSWVRQAPGKGLEWVSAINSGGSSSSYPESVKDRFTVSRDNAKNTLYLQMNSLKPEDTAVYFCAAKNVPGFYYSDYANHEYDYWGQGTQVTVSS
3.31
